# system_tested: Gal(b1-4)GlcNAc(b1-2)Man(a1-6)Man(b1-4)GlcNAc(b1-4)GlcNAc
# assay_overview: glycan array binding signal (z-score within array); higher = stronger binding
# condition_context: glycan notation: IUPAC condensed, linker removed
Only a selection was taken, and the strongest signals are over-represented in it overall.

binder	glycan array binding signal (z-score)
SynCAM (Mus musculus) (protein) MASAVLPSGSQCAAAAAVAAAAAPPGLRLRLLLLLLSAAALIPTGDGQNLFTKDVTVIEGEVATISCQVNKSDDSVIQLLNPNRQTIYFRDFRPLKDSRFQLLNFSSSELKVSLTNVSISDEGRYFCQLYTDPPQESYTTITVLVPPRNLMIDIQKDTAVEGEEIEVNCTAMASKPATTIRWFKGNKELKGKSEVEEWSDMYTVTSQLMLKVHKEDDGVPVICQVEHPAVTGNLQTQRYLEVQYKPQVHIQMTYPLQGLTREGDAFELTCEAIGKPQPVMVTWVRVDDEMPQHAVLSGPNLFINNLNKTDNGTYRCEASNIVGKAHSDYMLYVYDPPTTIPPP	-0.469
